Please provide measured log10 of GI50 for the entries that follow.
# Test system: HCT-15
On a log10 scale: recorded GI50, unit µM.

Incoming: For `COC(=O)NC(Nc1ccc(Cl)cc1Cl)(C(F)(F)F)C(F)(F)F` , what is its reported log10 of GI50?
Outgoing: 0.64

Incoming: Name the reported log10 of GI50 value associated with the compound `COc1ccc(/C=C/C(=O)Oc2ccc(/C=C3\CCCCC3=O)cc2)cc1`
Outgoing: 1.46

Incoming: For CCCCCCCCCCCCCCNC(=O)CCC(NC(=O)c1ccc(N(C)Cc2cnc3nc(N)nc(N)c3n2)cc1)C(=O)NCCCCCCCCCCCCCC (stereo not given) , what is its reported log10 of GI50?
Outgoing: 0.40

Incoming: Tell me the measured log10 of GI50 of NC(CCC(=O)NC(CSC(=O)N(O)c1ccc(Br)cc1)C(=O)NCC(=O)O)C(=O)O (stereo not given) , please.
Outgoing: 1.89

Incoming: Suppose we examine the compound `CCN(CC)CCNc1ccc2nnn3c4ccc(C)cc4c(=O)c1c23` ; what log10 of GI50 value has been reported?
Outgoing: 0.98

Incoming: // query log10 of GI50 value for entry `O=C(COC(c1ccc(F)cc1)c1ccc(F)cc1)N1CCN(CCCc2ccccc2)CC1`
Outgoing: 0.57

Incoming: # lookup: log10 of GI50 of `COc1cc(C)cc2c1c(=O)c1ccccc1n2C`
Outgoing: 1.56

* * *

# Tested on: HT-29
# EXPERIMENTAL PROTOCOL: NCI tumour cell line growth inhibition, 48 h
Calls of active or inactive are those of the source. No stated cut-off is given here; in the data, active = GI50 up to about 1.1 µM and inactive = higher.
Outcome field: choose from class 1 = active, class 0 = inactive

Incoming: Could you check what this test reported for COc1ccccc1OCC(COC(=O)Nc1ccc(C)cc1)OC(=O)Nc1ccc(C)cc1 (stereo not drawn) ?
Outgoing: class 0

Incoming: Recorded test call requested for COc1ccc(C2=Nc3cc(C)c(C)cc3NC(c3ccccc3)C2)cc1 (stereo not drawn)
Outgoing: class 0

Incoming: Check the results log: what was the call for O=C1C2C(C(=O)N1c1ccccc1)C1(Br)c3ccccc3C2(Br)C2C(=O)N(c3ccccc3)C(=O)C21 (stereo not drawn) ?
Outgoing: class 0

Incoming: Kindly provide the recorded test outcome for the following compound: Cc1cc(-c2nc3cc(F)ccc3s2)ccc1NC(=O)C(C)N (stereo not drawn)
Outgoing: class 0

Incoming: What is the recorded call for this compound in the test? `CCOc1ccc(/C=C(\Cl)c2ccc(OC)c(OC)c2)cc1`
Outgoing: class 0

Incoming: Name the outcome recorded for Cc1ccc([N+](=O)[O-])cc1S(=O)(=O)Nc1ccc(C2=NN(S(=O)(=O)c3cc([N+](=O)[O-])ccc3C)C(c3ccccc3O)C2)cc1 (stereo not drawn) in the assay.
Outgoing: class 0

Incoming: Assay result, entry `CO[C@@H]1C=C[C@@]23c4cc5c(cc4C(=O)O[C@H]2CN(C)[C@H]3C1)OCO5` — outcome?
Outgoing: class 0

Incoming: What did this assay record as the result for `O=c1c2cccnc2[nH]c2ccc3[nH]ncc3c12` ?
Outgoing: class 0

Incoming: What call does the record list for Nc1ccccc1C(=O)C(Br)C(Br)c1ccc2c(c1)OCO2 (stereo not drawn) ?
Outgoing: class 0

Incoming: // outcome(item) with item = O=S(=O)(c1ccccc1)C1CN2OC1(S(=O)(=O)c1ccccc1)CC21CCCCC1 (stereo not drawn)
Outgoing: class 0

Incoming: Outcome? `O=c1c2cc([N+](=O)[O-])cnc2sn1-c1ccc(Oc2ccccc2)cc1`
Outgoing: class 0

Incoming: // outcome(item) with item = COc1c(O)c(O)cc2c1-c1ccc(OC)c(=O)cc1C(NC(C)=O)CC2 (stereo not drawn)
Outgoing: class 0

Incoming: Which result was noted for this compound in the test: `NC1=NCCN1CC(=O)O`
Outgoing: class 0

Incoming: Could you check what this test reported for COc1cc2c3cc1Oc1c(OC)c(OC)cc4c1C(Cc1ccc(O)c(c1)Oc1ccc(cc1)CC3N(C)CC2)N(C)CC4 (stereo not drawn) ?
Outgoing: class 0

Incoming: Please state the recorded outcome for this compound: COc1cc(C2c3[nH]c4ccccc4c3C[C@H]3COC(=O)N23)cc(OC)c1OC (stereo partly drawn)
Outgoing: class 1

Incoming: # lookup: test call for `Cc1ccccc1NC(=O)c1c(C)oc2c1C(=O)c1ccccc1C2=O`
Outgoing: class 0

Incoming: Dear colleague, could you share the recorded outcome for `Cc1c(CCCl)c(=O)n2c([nH]c3ccccc32)c1C#N` when you have a moment?
Outgoing: class 0

Incoming: What was the test verdict on `[O-][n+]1c2cc(CBr)c(CBr)cc2[n+]([O-])c2c(O)cccc21` ?
Outgoing: class 0

* * *

# Test system: DMS-273
# EXPERIMENTAL PROTOCOL: NCI tumour cell line growth inhibition, 48 h
The source made the active and inactive calls. No stated cut-off is given here; in the data, active = GI50 up to about 1.1 µM and inactive = higher.
Pick one: TRUE for active, FALSE for inactive

Incoming: Please share the test call associated with Nc1ccccc1C(=O)C(Br)C(Br)c1ccc2c(c1)OCO2 (stereo unspecified) .
Outgoing: FALSE

Incoming: # lookup: test call for `[O-][n+]1c2cc(CBr)c(CBr)cc2[n+]([O-])c2c(O)cccc21`
Outgoing: FALSE

Incoming: # outcome recorded in this test, key = NC(CSC(c1ccccc1)(c1ccccc1)c1ccccc1)C(=O)O (stereo unspecified)
Outgoing: TRUE

Incoming: Tell me the assay call for `O=C1N=C2Sc3ccc4ccccc4c3N2C1=O` please.
Outgoing: FALSE

Incoming: Please indicate how the test categorized `c1ccc(SC(CCCCC(Sc2ccccc2)Sc2ccccc2)Sc2ccccc2)cc1` .
Outgoing: FALSE

Incoming: Can you look up the reported call for O=C1OC2C=CC1C1(CCOC1=O)C2 (stereo unspecified) for me?
Outgoing: FALSE

* * *

# Tested on: RXF 393
# EXPERIMENTAL PROTOCOL: NCI tumour cell line growth inhibition, 48 h
Calls of active or inactive are those of the source. No stated cut-off is given here; in the data, active = GI50 up to about 1.1 µM and inactive = higher.
OBSERVED PROPERTY: GI50

Incoming: Query (molecule): N#CC(C(=O)/C(=N\NC(N)=O)C(C#N)c1ccccc1)c1ccccc1 (stereo not given) ; field requested: GI50
Outgoing: > 100 µM (inactive)

Incoming: What measured GI50 goes with `N=C(N)SCc1cccc([N+](=O)[O-])c1` ?
Outgoing: 24.8 µM (inactive)

Incoming: Need GI50 of `COC(=O)/C=C1\CCCN1CCc1cc2c(cc1CC#N)OCO2` , thanks.
Outgoing: 31.7 µM (inactive)

Incoming: Query (molecule): `c1ccc(CN(Cn2cccn2)Cn2cccn2)nc1` ; field requested: GI50
Outgoing: > 100 µM (inactive)

Incoming: May I ask what GI50 has been recorded for Cc1ccc([N+](=O)[O-])cc1S(=O)(=O)Nc1ccc(C2=NN(S(=O)(=O)c3cc([N+](=O)[O-])ccc3C)C(c3ccccc3O)C2)cc1 (stereo not given) ?
Outgoing: 36.8 µM (inactive)

Incoming: Please look up its GI50: Cc1ccc(S(=O)(=O)N/N=C2/C3CC4CCC2C4C3)cc1 (stereo not given)
Outgoing: > 100 µM (inactive)

Incoming: Quick check: GI50 of CCCCCCCCCCCCCCNC(=O)CCC(NC(=O)c1ccc(N(C)Cc2cnc3nc(N)nc(N)c3n2)cc1)C(=O)NCCCCCCCCCCCCCC (stereo not given) ?
Outgoing: 11.6 µM (inactive)

Incoming: Tell me the measured GI50 of `N#Cc1c(Cl)cccc1Oc1ccc(S(=O)(=O)N/C(=N\O)Nc2ccc(Cl)cc2)cc1` , please.
Outgoing: 17.9 µM (inactive)

Incoming: // returns reported GI50 for input CC1(C)COC(C23C4C5C2C2C3C4C52I)=N1 (stereo not given)
Outgoing: > 100 µM (inactive)

Incoming: Would you mind telling me what GI50 value was observed for `O=C1CC(Cc2n[nH]c3c2CCCC3)CC(=O)N1` ?
Outgoing: > 100 µM (inactive)

* * *

# System: OVCAR-4
# EXPERIMENTAL PROTOCOL: NCI tumour cell line growth inhibition, 48 h
The source made the active and inactive calls. Rule as the data show it: active = GI50 up to about 1.1 µM and inactive = higher.
In this exercise, the only acceptable responses are T = active, F = inactive

Incoming: Just curious, what result did CN1C(=O)C2(C=CC(O)CC2)c2ccccc21 (configuration not stated) get here?
Outgoing: F

Incoming: # fetch the recorded call for `O=c1ss/c(=N\c2ccccc2)n1-c1ccccc1` here
Outgoing: F

Incoming: Recorded test call requested for `COP(=O)(Cc1ccc(/C=C/C#N)o1)OC`
Outgoing: F

Incoming: Check the results log: what was the call for `COC(=O)C(CCCCN)NC(=O)C(CCCCN)NC(C)=O.Cc1ccc(C(=O)Nc2ccc(S(=O)(=O)O)c3cc(S(=O)(=O)O)cc(S(=O)(=O)O)c23)cc1NC(=O)c1cccc(NC(=O)Nc2cccc(C(=O)Nc3cc(C(=O)Nc4ccc(S(=O)(=O)O)c5cc(S(=O)(=O)O)cc(S(=O)(=O)O)c45)ccc3C)c2)c1` ?
Outgoing: F

Incoming: Called result for Cc1ccc(S(=O)(=O)N/N=C2/C3CC4CCC2C4C3)cc1 (configuration not stated)
Outgoing: F

Incoming: Any idea what this test logged for `Cc1cc(C)n(-c2nsc3ccccc23)n1` ?
Outgoing: F

Incoming: Status in this test for O=C1NC(=O)C2(CCC(O)C2)c2cc[n+]([O-])cc21 (configuration not stated) ?
Outgoing: F

Incoming: Per the assay record, what outcome was assigned to `O=C(CCc1ccc(O)c(O)c1)NCCc1ccc(O)c(O)c1` ?
Outgoing: F

Incoming: Recorded test call requested for `c1ccc(SC(CCCCC(Sc2ccccc2)Sc2ccccc2)Sc2ccccc2)cc1`
Outgoing: F

Incoming: Which outcome was assigned to `Cc1[nH]c(=O)nc(N/N=C/c2ccc(O)cc2)c1C(=O)Nc1ccc(Cl)cc1` in this test?
Outgoing: F

Incoming: What call does the record list for `Cc1cc2c(cc1Cl)SC(NNC(=O)c1ccccc1)=NS2(=O)=O` ?
Outgoing: F

Incoming: Please share the test call associated with O=C(O)CC(Nc1ccccc1)C(=O)O (configuration not stated) .
Outgoing: F

Incoming: Can you look up the reported call for COc1ccc(N2C(=O)C3c4[nH]c5ccccc5c4C4CCCCCCCCCC4C3C2=O)cc1 (configuration not stated) for me?
Outgoing: F

Incoming: For O=C1CSC(c2cccc(Cl)c2)N1c1ccc(-n2c(-c3ccccc3)nc3ccccc3c2=O)cc1 (configuration not stated) , which call appears in the assay record?
Outgoing: F

Incoming: Per the records of this test, what outcome belongs to CN(C)CCN1C(=O)c2cccc3cc([N+](=O)[O-])cc(c23)C1=O [MITONAFIDE] ?
Outgoing: F

Incoming: Could you check what this test reported for `O=C1N=C2Sc3ccc4ccccc4c3N2C1=O` ?
Outgoing: F

Incoming: // outcome(item) with item = Cc1cc(-c2nc3cc(F)ccc3s2)ccc1NC(=O)C(C)N (configuration not stated)
Outgoing: T

Incoming: Assay result, entry Cc1ccc(C(=O)C(C)N)cc1C (configuration not stated) — outcome?
Outgoing: F

Incoming: What classification did C[C@]12CCC(O)CC1=CC[C@@H]1[C@@H]2CC[C@]2(C)C(O)[C@H](n3ccnc3)C[C@@H]12 (some centres not stated) end up with in this test?
Outgoing: F

Incoming: So what was the verdict on COc1cc2c(cc1OC)C(CC(=O)NN=C(C)C)NCC2 (configuration not stated) in this test?
Outgoing: F

Incoming: Record request — test call for `COc1ccccc1NC(=O)C1=C(C)NC(C)=C(C(=O)Nc2ccccc2OC)C1c1ccc(N(C)C)cc1`
Outgoing: F

Incoming: GET /call?item= `COc1cc(-c2cc(=O)c3cc4c(=O)cc(-c5cc(OC)c(OC)c(OC)c5)oc4cc3o2)cc(OC)c1OC` returns the recorded outcome of this test.
Outgoing: F

Incoming: How did this test come out for `O=C1/C(=C/c2ccc3c(c2)CCC3)Cc2cc3c(cc21)CCC3` ?
Outgoing: F

Incoming: Write down the call the test reported for this compound. Item: NC1=CN2c3ccccc3N(CC(=O)O)C2C=C1 (configuration not stated)
Outgoing: F

Incoming: Outcome? `O=C(O)[C@@H]1C[C@@H](O)CN1C(=O)OCc1ccccc1`
Outgoing: F

Incoming: What call does the record list for `CC1(C)[C@@H](Cn2cc(I)c(=O)[nH]c2=O)CC[C@@]1(C)CO` ?
Outgoing: F

Incoming: Per the assay record, what outcome was assigned to CC1=C2C(=O)C(C)(C)C=C2C(=O)[C@](C)(O)C12CC2 [DEHYDROILLUDIN M] ?
Outgoing: T

Incoming: Give the logged outcome of this assay for the following compound: COc1ccc([S+]([O-])Cc2cc(OC)ccc2OC)cc1 (configuration not stated)
Outgoing: F

Incoming: Could you check what this test reported for `Oc1ccc(SCc2ccc(NCc3ccccc3)cc2)cc1` ?
Outgoing: F

Incoming: Hello, I am checking results. What call was entered for `COc1ccccc1NC(=O)CC(=O)n1nc(C)c(/N=N/c2ccccc2F)c1C` ?
Outgoing: F

Incoming: // outcome(item) with item = `CCOC(=O)/C1=C(\C)N(Cc2ccccc2)C(=O)c2ccccc2C(=O)c2c(OC(C)=O)ccc(OC(C)=O)c21`
Outgoing: F

Incoming: Status in this test for `COc1cc(/C=N\NC(=O)C[N+](C)(C)C)cc(OC)c1OC` ?
Outgoing: F

Incoming: Check the results log: what was the call for COC(=O)/C(=N\NC(C)(C)C)C(C(=O)C(=O)Nc1cc(C)ccc1C)c1nc2ccccc2nc1O (configuration not stated) ?
Outgoing: F

Incoming: Any idea what this test logged for `O=C(O)c1c2c(cc3c1CC1(Cc4ccccc4C1)C3)CCC2` ?
Outgoing: F

Incoming: Just curious, what result did COc1ccc(C2=Nc3cc(C)c(C)cc3NC(c3ccccc3)C2)cc1 (configuration not stated) get here?
Outgoing: F

Incoming: Assay result, entry `COc1cc(/C=N/n2c(Cc3ccc(Cl)cc3)n[nH]c2=O)cc(OC)c1OC` — outcome?
Outgoing: F

Incoming: For `O=C(Cc1ccccc1)NNc1nc(NNC(=O)c2ccncc2)nc(Nc2ccc([N+](=O)[O-])cc2)n1` , what call appears in the results of this test?
Outgoing: F

Incoming: How did this test come out for COC(=O)c1cccc(C)c1C1CN=NC12Cc1cc(C)cc(C)c1C2=O (configuration not stated) ?
Outgoing: F

Incoming: What did the test return for N#CC(C(=O)/C(=N/NC(=O)c1ccccc1O)C(C#N)c1ccc(Cl)cc1)c1ccc(Cl)cc1 (configuration not stated) ?
Outgoing: F

Incoming: I'd appreciate the recorded outcome for `CCCCOCn1c(=O)[nH]c(=O)c2cc(Br)ccc21` from this test.
Outgoing: F

Incoming: I'd appreciate the recorded outcome for O=C1CC2C=CC(O)C(C1)C2 (configuration not stated) from this test.
Outgoing: F

Incoming: Fill in: this test's call for `N#Cc1c(O)c(/N=N/c2ccc(Cl)cc2)c(=O)n2c1[nH]c1ccccc12` is ___
Outgoing: F
